B1: CPEB3 Ribozyme (parent)
chain: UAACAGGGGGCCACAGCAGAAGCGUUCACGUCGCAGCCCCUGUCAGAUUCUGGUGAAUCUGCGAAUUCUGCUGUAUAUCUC

Variants of: B1
Run description: self-cleavage, relative activity (ratio to wild type); higher = more cleavage; in vitro, sequencing
So basically: self-cleavage at 0.7 or higher? That is TRUE. Lower than 0.7? That is FALSE.

UAACAGGGGGCCACAGCAGAAGCGUUCACGUCGCAGCCCCUGUCAGAUUCUGGUGAAUCGGCGAAUUCUGCCGUAUAUCUC [U60G U72C] = FALSE
UAACAGGGCGCCACAGCAGAAGCGUUCACGUCGCAGCCCCUGUCAGAUUCUGGUGAAUCUGCGAGUUCUGCUGUAUAUCUC [G9C A65G] = FALSE
UAACGGGGGGCCACAGCAGAAGCUUUCACGUCGCAGCCCCUGUCAGAUUCUGGUGAAUCUGCGAAUUCUGCUGUAUAUCUC [A5G G24U] = FALSE
UAACAGGGGGCCACAGCUGAAGCAUUCACGUCGCAGCCCCUGUCAGAUUCUGGUGAAUCUGCGAAUUCUGCUGUAUAUCUC [A18U G24A] = FALSE
UAACAGGGGGCCACAGCAGAAGCGUCCACGUCGCAGCCCCUGUCAGAUUCUGGUGAAUCUGCGAAUUCGGCUGUAUAUCUC [U26C U69G] = FALSE
UAACAGGGGGCCACAGCAGGAGCGUUCACGUCGCAGCCCCUGUCAGAUUCUGGUGAAUCUGCGAAUUCUGCUGUAUACCUC [A20G U78C] = TRUE
UAACAGGGGGCCACAGCAGAAGCGUUCACGUCGGAGCCCCUGUCAGAUUCUGGUGAAUCUGCGAAUUCUGCUGUAUCUCUC [C34G A77C] = FALSE
UACCAGGGGGCCACAGCAGAAGCGUCCACGUCGCAGCCCCUGUCAGAUUCUGGUGAAUCUGCGAAUUCUGCUGUAUAUCUC [A3C U26C] = FALSE
UAACAGGGGGCCAUAGCAGAAGCGUUCACGUCGCAGCCCCUGUCAGAUUCUGGUGAAUCUGCGAAUUCUGCUGUAUAUCCC [C14U U80C] = TRUE
UAACAGGGGGCCACAGCAGAAGCGUUCACGUCGCAGCCCCUGUCGGAUUCUGGUGAAUCUGCGAAUUCUGCUGCAUAUCUC [A45G U74C] = TRUE
UAACAGGGGUCCACAGCAGAAGCGUUCACGUCGCAGCCCCUGUCAGAUUCUGGUGAAUCCGCGAAUUCUGCUGUAUAUCUC [G10U U60C] = FALSE
UAACAAGGGGCCACAGCAGAAGCGUUCACGUCGCAGCCCCUGUCAGAUUCUGGUGAAUCUGCGAAUUCUGCUGUAUAUCUU [G6A C81U] = TRUE
UAACAGGGGGCCACAGCAGAAGCGUUCACGUCACAGCCCCUGUCCGAUUCUGGUGAAUCUGCGAAUUCUGCUGUAUAUCUC [G33A A45C] = FALSE
UAACAGGGGGCCACAGCAGAAGCGUUCACGUCGCAGCCCCUGUCAGAUUCGGGUGAAUCUGCGAACUCUGCUGUAUAUCUC [U51G U66C] = FALSE
UAACAGGGGGCCACAGCAGAAGCGUUCACGUCGCAGCCCCUGUCAGAUUCUGGUGAAUCUGCGAAUUCUGCUGUAAAACUC [U76A U78A] = TRUE
UAACAGGGGGCCACAGCAGAAGCGUUCACGUCGCAGCCCCUGUCAGAUUCUGGUGUAUCUGCGAAUUCUGCCGUAUAUCUC [A56U U72C] = TRUE
UAGCAGGGGGCCACAGCAGAAGCGUUCACGGCGCAGCCCCUGUCAGAUUCUGGUGAAUCUGCGAAUUCUGCUGUAUAUCUC [A3G U31G] = TRUE
UAACAGGGGGCCACAGCAGAAGCGUUCACGACGCAGCCCCUGUCACAUUCUGGUGAAUCUGCGAAUUCUGCUGUAUAUCUC [U31A G46C] = FALSE
UAACAGGGGGCCACAGCAGAAGCGUUCACGUCGCACCCCCUGUCAGAUUCUGGUGAAUCUGCGAAUUCUGCUGUAUGUCUC [G36C A77G] = FALSE
UAUCAGGGGGCCACAGCAGAAGCGUUCCCGUCGCAGCCCCUGUCAGAUUCUGGUGAAUCUGCGAAUUCUGCUGUAUAUCUC [A3U A28C] = TRUE
UAACAGGGGGCCACAGCAGAAGCGUUCACGUCGCAGCCCCAGUCAGAUUCUGGUGAAUCUGCGAAUUCUGCUGUAUUUCUC [U41A A77U] = FALSE
UAACAGGGGGCCGCAGCAGAAGCGUUCACGUCGCAGCCCCUGUCAGAUUCUGGUGAAUCUGCGAAUUCUGUUGUAUAUCUC [A13G C71U] = FALSE
UAACAGGGGGCCACAGCAGAAGCGUUCACGUCGCAACCCCUGUCAGAUUCUGGUGAAUCUGCGUAUUCUGCUGUAUAUCUC [G36A A64U] = FALSE
AAACAGGGGGCCACAGCAGAAGCGUUCACGUCGCAGCCCCUGUCAGAUUCUGGUGAAACUGCGAAUUCUGCUGUAUAUCUC [U1A U58A] = FALSE
UAACAGGGGGCCACGGCAGAAGCGUUCACGUCGCAGCCUCUGUCAGAUUCUGGUGAAUCUGCGAAUUCUGCUGUAUAUCUC [A15G C39U] = TRUE
UAACAGCGGGCCACAGCAGAAGCGUUCACGUCGCAGCCCCCGUCAGAUUCUGGUGAAUCUGCGAAUUCUGCUGUAUAUCUC [G7C U41C] = FALSE
UAACAGGGGGCCACAGCAGAAGCGUUCACGUCGCAGCCCCCAUCAGAUUCUGGUGAAUCUGCGAAUUCUGCUGUAUAUCUC [U41C G42A] = FALSE
UAACAGCGGGCCCCAGCAGAAGCGUUCACGUCGCAGCCCCUGUCAGAUUCUGGUGAAUCUGCGAAUUCUGCUGUAUAUCUC [G7C A13C] = FALSE
UAACAGGGGGCCACAGCAGAAGCGUUCAAGUCGCAGCCCCUGUCAGAUUCUGGUGAAUUUGCGAAUUCUGCUGUAUAUCUC [C29A C59U] = FALSE
UAACAGGGGGCCACAGCGGAAGCGUUCACGUCGCAGCCCCUUUCAGAUUCUGGUGAAUCUGCGAAUUCUGCUGUAUAUCUC [A18G G42U] = FALSE
UAACAGGGGGCCACAGCAGAAGCGUUCUCGUCGCAGCCCCUGUCGGAUUCUGGUGAAUCUGCGAAUUCUGCUGUAUAUCUC [A28U A45G] = FALSE
UAACAGGGGGCCACAGCAGAAGCGUUCACGUCGCAGCCCCUGUCGGAUUCUGGUGAAUCUGCGAAUUCUGCUGUAGAUCUC [A45G U76G] = TRUE
UAACAGGGGGCCACAGCAGAAGCGUUCACGUCGCAGCCCCUGUCAGAUUCUGGUGAGUCUGCGAAUUCUGCUGUGUAUCUC [A57G A75G] = TRUE
UAACAGGGGGCCACAGCAGAAGCGUUCACGUCGCAGCCCCUGUCAGAUUCUGGUGGGUCUGCGAAUUCUGCUGUAUAUCUC [A56G A57G] = FALSE
UAACAGGGGGCCACAGCAGAAGCGUUCACGUCACAGCCCCUGUCAGAUUCUGGUGAAUCUGCGAAUUCUGCUGAAUAUCUC [G33A U74A] = FALSE
